Test system: phosphorylation of AKT (pAKT) in T47D cells expressing mutant PI3Ka (H1047R)
Test: In vitro cell pAKT (Ser473) HTRF, T47D cells
Type: cell-based
Details: Homo sapiens, T47D, 6 h, cellular pAKT, T47D cells, mutant PI3Ka (H1047R), 6 hours; read-out: Avg T-47D IC50
Parameter IC50: see the listing below.

compound: Cc1cc([C@@H](C)Nc2ccccc2C(=O)O)c2cc(OCC(C)C)n(C)c(=O)c2c1
IC50: 1 to 500 nM
--
compound: Cc1cc([C@@H](C)Nc2ccccc2C(=O)O)c2cc(-c3cnc4c(c3)CCO4)n(C)c(=O)c2c1
IC50: 1 to 500 nM
--
compound: COc1cccc(N[C@H](C)c2cc(C)cc3c(=O)n(C)c(N4CCN(CC(F)(F)F)CC4)cc23)c1C(=O)O
IC50: 500 to 2000 nM
--
compound: C[C@@H](Nc1ccccc1C(=O)O)c1cc(F)cc2c(=O)n(C)c(C3C[C@@H]3C3CC3)cc12 (single isomer, unassigned)
IC50: 1 to 500 nM

Let me know recorded IC50 for "Cc1cc([C@@H](C)Nc2ccccc2C(=O)O)c2c(F)c(C3CC3)n(C)c(=O)c2c1" , thanks.
1 to 500 nM

Let me know recorded IC50 for "C[C@@H](Nc1ccccc1C(=O)O)c1cc(F)cc2c(=O)n(C)c(-c3cnc(OCC(F)(F)F)s3)cc12" , thanks.
1 to 500 nM

Let me know recorded IC50 for "Cc1cc([C@@H](C)Nc2ccccc2C(=O)O)c2cc(N3CCN(C(=O)OC4CC4)CC3)n(C)c(=O)c2c1" , thanks.
1 to 500 nM

----------
Tested on: T47D cells expressing mutant PI3Ka (H1047R)
Experiment: In vitro cell proliferation, T47D cells (CellTiter-Glo)
Assay type: cell-based
Settings: inhibition of proliferation, 72 hours, read-out: Avg T-47D EC50
measure.name: EC50

Example entries and their recorded answers appear below.
compound: Cc1cc(C(C)Nc2cccc(F)c2C(=O)O)c2cc(-c3ccc(COC(F)(F)F)nc3)n(C)c(=O)c2c1 (stereo not shown)
assayed.system: T47D cells expressing mutant PI3Ka (H1047R)
EC50: 1 to 500 nM
--
compound: Cc1ncc(-c2ncc(-c3cc4c([C@@H](C)Nc5ccccc5C(=O)O)cc(F)cc4c(=O)n3C)cc2F)s1
assayed.system: T47D cells expressing mutant PI3Ka (H1047R)
EC50: 1 to 500 nM
--
compound: Cc1cc([C@@H](C)Nc2cccc(F)c2C(=O)O)c2cc(C3C[C@H]3C)n(C)c(=O)c2c1 (single isomer, unassigned)
assayed.system: T47D cells expressing mutant PI3Ka (H1047R)
EC50: 1 to 500 nM
--
compound: C[C@@H](Nc1ccccc1C(=O)O)c1cc(F)cc2c(=O)n(C)c(C3C[C@@H]3C(F)(F)F)cc12 (single isomer, unassigned)
assayed.system: T47D cells expressing mutant PI3Ka (H1047R)
EC50: 1 to 500 nM
--
compound: Cc1ccc(N[C@H](C)c2cc(F)cc3c(=O)n(C)c(-c4ccc(OCC(F)(F)F)nc4)cc23)c(C(=O)O)n1
assayed.system: T47D cells expressing mutant PI3Ka (H1047R)
EC50: 500 to 2000 nM
--
compound: Cc1cc([C@@H](C)Nc2ccccc2C(=O)O)c2cc(N3CCN(c4ccc(CF)nc4)CC3)n(C)c(=O)c2c1
assayed.system: T47D cells expressing mutant PI3Ka (H1047R)
EC50: 1 to 500 nM
--
compound: Cc1cc(C(C)Nc2ccccc2C(=O)O)c2cc(N3CC4CN(CC(F)(F)F)CC4C3)n(C)c(=O)c2c1 (mixture of isomers)
assayed.system: T47D cells expressing mutant PI3Ka (H1047R)
EC50: 500 to 2000 nM
--
compound: Cc1cc([C@@H](C)Nc2ccccc2C(=O)O)c2cc(N3CCN(c4cccc(Cl)c4)CC3)n(C)c(=O)c2c1
assayed.system: T47D cells expressing mutant PI3Ka (H1047R)
EC50: 1 to 500 nM

Let me know recorded EC50 for "Cc1cc([C@@H](C)Nc2ccccc2C(=O)O)c2cc(-c3ccc(O[C@H]4C[C@@H](F)C4)nc3)n(C)c(=O)c2c1" , thanks.
1 to 500 nM

Let me know recorded EC50 for CC(Nc1ccccc1C(=O)O)c1cc(F)cc2c(=O)n(C)c(-c3ccc(OC4CC(F)C4)nc3)cc12 (stereo not shown) [Example 447] , thanks.
1 to 500 nM

Let me know recorded EC50 for Cc1cc(C(C)Nc2ccccc2C(=O)O)c2cc(N3Cc4ccc(F)c(F)c4C3)n(C)c(=O)c2c1 (single isomer, unassigned) [Example 178] , thanks.
500 to 2000 nM

Let me know recorded EC50 for Cc1cc(C(C)Nc2ccccc2C(=O)O)c2cc(N3CC4CCC(C4)C3)n(C)c(=O)c2c1 (single isomer, unassigned) [Example 10] , thanks.
2000 to 15000 nM

Let me know recorded EC50 for Cc1ncc(-c2ncc(-c3cc4c(C(C)Nc5ccccc5C(=O)O)cc(F)cc4c(=O)n3C)cc2F)cc1F (stereo not shown) , thanks.
1 to 500 nM
